target-or-system: KRAS G12C (Homo sapiens, UniProt P01116+P62937, G12C)
Sequence (P01116 1-169 isoform P01116-2 G12C): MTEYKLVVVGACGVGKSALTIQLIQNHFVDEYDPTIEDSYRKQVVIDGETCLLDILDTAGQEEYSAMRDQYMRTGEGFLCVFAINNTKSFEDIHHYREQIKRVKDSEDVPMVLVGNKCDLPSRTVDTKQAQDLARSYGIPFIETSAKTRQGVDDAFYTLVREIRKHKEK
Sequence (P62937 whole entry): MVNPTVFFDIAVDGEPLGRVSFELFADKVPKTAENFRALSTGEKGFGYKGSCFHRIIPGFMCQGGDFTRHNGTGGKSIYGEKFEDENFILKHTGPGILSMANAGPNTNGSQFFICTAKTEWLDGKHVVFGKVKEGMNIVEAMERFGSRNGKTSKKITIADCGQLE
assay-details: Disruption of BRAF RBD interaction with Ras (FRET / MOA assay, with Cyclophilin A)
Format: biochemical
cond: read-out: KRAS G12C FRET data, IC50
pIC50: −log10 of the molar value.
Below, each entry is listed with its recorded pIC50.

- molecule: "CCn1c(-c2cccnc2[C@H](C)OC)c2c3cc(ccc31)-c1csc(n1)C[C@H](NC(=O)[C@H](C(C)C)N(C)C(=O)N1CC([C@H](C)CO)C1)C(=O)N1CCC[C@H](N1)C(=O)OCC(C)(C)C2 (atropisomer, axis not shown)"
  result: "7.00 to 8.00"
- molecule: "CCn1c(-c2cccnc2[C@H](C)OC)c2c3cc(ccc31)-c1cc(O)cc(c1)C[C@H](NC(=O)[C@H](C(C)C)N(C)C(=O)C13CNCC1C3)C(=O)N1CCC[C@H](N1)C(=O)OCC(C)(C)C2 (stereo partly drawn)"
  result: "7.00 to 8.00"
- molecule: "CCn1c(-c2cccnc2[C@H](C)OC)c2c3cc(ccc31)-c1cc(O)cc(c1)C[C@H](NC(=O)[C@H](C(C)C)N(C)C(=O)C1Cc3cccnc3C1)C(=O)N1CCC[C@H](N1)C(=O)OCC(C)(C)C2 (stereo partly drawn)"
  result: "7.00 to 8.00"
- molecule: "CCn1c(-c2cccnc2[C@H](C)OC)c2c3cc(ccc31)-c1csc(n1)C[C@H](NC(=O)[C@H](C(C)C)N(C)C(=O)N1CCC13CN(C)C3)C(=O)N1CCC[C@H](N1)C(=O)OCC(C)(C)C2"
  result: "7.00 to 8.00"
- molecule: "CCn1c(-c2cccnc2[C@H](C)OC)c2c3cc(ccc31)-c1csc(n1)C[C@H](NC(=O)[C@H](C(C)C)N(C)C(=O)N1CCCC1)C(=O)N1CCC[C@H](N1)C(=O)OCC(C)(C)C2 (atropisomer, axis not shown)"
  result: "7.00 to 8.00"
- molecule: "CCn1c(-c2cc(N3CCN(C)CC3)cnc2[C@H](C)OC)c2c3cc(ccc31)-c1csc(n1)C[C@H](NC(=O)[C@H](C(C)C)N(C)C(=O)[C@@H]1OCC[C@@H]1c1ccccc1)C(=O)N1CCC[C@H](N1)C(=O)OCC(C)(C)C2 (atropisomer, axis not shown)"
  result: "7.00 to 8.00"
- molecule: "CCn1c(-c2cc(N3CCN(C)CC3)cnc2[C@H](C)OC)c2c3cc(ccc31)-c1cccc(c1)C[C@H](NC(=O)[C@H](C(C)C)N(C)C(=O)[C@@H]1OCC[C@@H]1c1ccccc1)C(=O)N1CCC[C@H](N1)C(=O)OCC(C)(C)C2 (atropisomer, axis not shown)"
  result: "7.00 to 8.00"
- molecule: "CCn1c(-c2cccnc2[C@H](C)OC)c2c3cc(ccc31)-c1csc(n1)C[C@H](NC(=O)[C@H]1CCO1)C(=O)N1CCC[C@H](N1)C(=O)OCC(C)(C)C2"
  result: "6.00 to 7.00"

Okay, now this molecule:
Incoming: Entry CCn1c(-c2cccnc2[C@H](C)OC)c2c3cc(ccc31)-c1cc(O)cc(c1)C[C@H](NC(=O)[C@H](C(C)C)N(C)C(=O)[C@H]1CC1(F)F)C(=O)N1CCC[C@H](N1)C(=O)OCC(C)(C)C2 : reported pIC50 = ?
Outgoing: 7.00 to 8.00
